Cited source: paper PMC7941214

assay: Log P determination; settings: n-octanol/water, Au by FAAS
Outcome: MET for log P of at least 0.2; NOT MET for anything lower.

Take a look at these entries with their results.
{"columns": ["compound", "discrete-label"],
 "data": [
  ["CC[PH](CC)(CC)[Au][S]C1OC(CO)C(O)C(O)C1O (centres unmarked) [Compound 10]", "NOT MET"],
  ["FC(F)(F)c1ccc(P(c2ccc(C(F)(F)F)cc2)c2ccc(C(F)(F)F)cc2)cc1.[Cl][Au]", "MET"],
  ["CC(=O)OCC1O[C@@H]([S][Au-][P+](c2ccc(F)cc2)(c2ccc(F)cc2)c2ccc(F)cc2)C(OC(C)=O)[C@@H](OC(C)=O)[C@@H]1OC(C)=O (some centres unmarked)", "MET"]
]}

Assess whether reported log P for `CC[P+](CC)(CC)[Au-][S]CCO` sits at 0.2 or higher.
MET

Is log P for `CC[P+](CC)(CC)[Au-][S]CC(F)(F)F` at or above 0.2?
MET

Hello, I need to know if C[PH](C)(C)[Au][S]C1OC(CO)C(O)C(O)C1O (centres unmarked) [Compound 38] has measured log P not below 0.2. Thanks!
NOT MET

Kindly determine if log P recorded for CCP(CC)CC.[Au+].[Cl-] [Compound 25, (Triethylphosphine)gold Chloride] is above or exactly 0.2.
MET

Reported log P at or above 0.2? CP(C)C.[Cl][Au] [Compound 24, (Trimethylphosphine)gold Chloride]
NOT MET

###

assay: Log P determination; conditions: n-octanol/water, Au by FAAS
# key: entry, value: log P
Give the value as a plain number.

Example entries begin here.
{"columns": ["molecule", "meas-value"],
 "data": [
  ["CC[PH](CC)(CC)[Au][S]c1ccccc1N", 0.61],
  ["CC[P+](CC)(CC)[Au-][S]CC(=O)OC", 1.75]
]}

Shifting focus to the molecule that follows.
Which log P value is on record for CC[PH](CC)(CC)[Au][S]C1OC(CO)C(OC2OC(CO)C(O)C(O)C2O)C(O)C1O (stereo not drawn) ?
−1.69

###

test system: P. aeruginosa NCTC 13437; test: Broth microdilution MIC/MBC, P. aeruginosa; format: cell-based, Pseudomonas aeruginosa; conditions: value before the parentheses; two values = two repeats
Entries and their measured log10(MIC P. aeruginosa NCTC 13437) follow.
Please note: log10 values; quantity MIC P. aeruginosa NCTC 13437; unit µM.

{"columns": ["compound", "tgt", "meas-value"],
 "data": [
  ["CC[P+](CC)(CC)[Au-][S]CC(F)(F)F", "P. aeruginosa NCTC 13437", 2.17],
  ["CC[PH](CC)(CC)[Au][S]c1ccccc1", "P. aeruginosa NCTC 13437", 2.48],
  ["CP(C)C.[Cl][Au] [Compound 24, (Trimethylphosphine)gold Chloride]", "P. aeruginosa NCTC 13437", 1.72],
  ["CCP(CC)CC.[Au+].[Cl-] [Compound 25, (Triethylphosphine)gold Chloride]", "P. aeruginosa NCTC 13437", 1.96],
  ["CC[PH](CC)(CC)[Au][O]C1OC(CO)C(OC2OC(CO)C(O)C(O)C2O)C(O)C1O (stereo not drawn)", "P. aeruginosa NCTC 13437", 2.58]
]}

Quick one: log10(MIC P. aeruginosa NCTC 13437) of `CC[PH](CC)(CC)[Au][S]c1ccc(N)cc1` ?
2.16

So what does the record say about log10(MIC P. aeruginosa NCTC 13437) for CC(=O)OCC1O[C@@H]([S][Au-][P+](C)(C)C)C(OC(C)=O)[C@@H](OC(C)=O)[C@@H]1OC(C)=O (stereo partly drawn) ?
2.00

If you can, please state the reported log10(MIC P. aeruginosa NCTC 13437) value of CCCC[PH](CCCC)(CCCC)[Au][Cl] [Compound 26, (Tri-n-butylphosphine)gold Chloride] .
1.87

What does the data say about its log10(MIC P. aeruginosa NCTC 13437)? Entry: CC[PH](CC)(CC)[Au][S]C1OC(CO)C(OC2OC(CO)C(O)C(O)C2O)C(O)C1O (stereo not drawn)
2.58

Name the reported log10(MIC P. aeruginosa NCTC 13437) value associated with the compound `CC[P+](CC)(CC)[Au-][S]CC(=O)OC`
2.48
